# reported Activity of Nav1.5 with peptide, expressed as a percentage of the reference compound; entries follow
Molecular target: Nav1.5 (Homo sapiens)
Experiment: in vitro
Conditions: peptide at 0.2 μM; second of two Nav1.5 columns (probably TP2); 100% = no change
value.kind: Activity of Nav1.5 with peptide, expressed as a percentage of the reference compound (%)

| substance | unit.of.measurement | result |
| --- | --- | --- |
| 15 (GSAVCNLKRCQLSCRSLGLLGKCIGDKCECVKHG) [compound 15] | % | 91 |
| 11 (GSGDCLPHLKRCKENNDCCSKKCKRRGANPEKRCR) [compound 11] | % | 107 |
| 4 (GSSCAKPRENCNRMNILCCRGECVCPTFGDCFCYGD) [compound 4] | % | 118 |
| 17 (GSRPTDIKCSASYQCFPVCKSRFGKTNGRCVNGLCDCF) [compound 17] | % | 95 |
| 6 (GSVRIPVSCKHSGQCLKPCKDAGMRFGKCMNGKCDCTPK) [compound 6] | % | 104 |
| 32 (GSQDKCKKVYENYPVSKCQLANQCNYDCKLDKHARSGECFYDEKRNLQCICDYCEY) [compound 32] | % | 101 |
| 19 (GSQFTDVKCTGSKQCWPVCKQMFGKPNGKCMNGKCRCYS) [compound 19] | % | 114 |
| 23 (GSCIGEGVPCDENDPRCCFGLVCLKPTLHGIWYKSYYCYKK) [compound 23] | % | 87 |
| 29 (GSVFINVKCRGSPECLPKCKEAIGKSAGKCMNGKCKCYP) [compound 29] | % | 114 |
| 38 (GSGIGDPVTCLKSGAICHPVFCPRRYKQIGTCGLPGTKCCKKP) [compound 38] | % | 124 |
| 13 (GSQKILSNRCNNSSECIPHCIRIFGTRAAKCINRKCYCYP) [compound 13] | % | 95 |
| 9 (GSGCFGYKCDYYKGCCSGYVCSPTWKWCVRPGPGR) [compound 9] | % | 103 |
| 18 (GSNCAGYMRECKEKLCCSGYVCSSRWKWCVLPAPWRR) [compound 18] | % | 106 |
| 20 (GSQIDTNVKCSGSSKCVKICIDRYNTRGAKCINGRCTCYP) [compound 20] | % | 101 |
| 34 (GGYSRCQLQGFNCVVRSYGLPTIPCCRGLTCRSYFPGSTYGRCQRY) [compound 34] | % | 113 |
| 39 (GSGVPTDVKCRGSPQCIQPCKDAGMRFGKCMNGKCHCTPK) [compound 39] | % | 105 |
| 12 (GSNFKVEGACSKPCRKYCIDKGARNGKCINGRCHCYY) [compound 12] | % | 95 |
| 24 (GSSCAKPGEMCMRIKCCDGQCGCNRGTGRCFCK) [compound 24] | % | 95 |
| 16 (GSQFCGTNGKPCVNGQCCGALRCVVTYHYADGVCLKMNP) [compound 16] | % | 104 |

====

Biological target: Cav2.1 (Homo sapiens, UniProt O00555)
Construct: host or cells: HEK293 or CHO
Sequence (P54289 25-1103): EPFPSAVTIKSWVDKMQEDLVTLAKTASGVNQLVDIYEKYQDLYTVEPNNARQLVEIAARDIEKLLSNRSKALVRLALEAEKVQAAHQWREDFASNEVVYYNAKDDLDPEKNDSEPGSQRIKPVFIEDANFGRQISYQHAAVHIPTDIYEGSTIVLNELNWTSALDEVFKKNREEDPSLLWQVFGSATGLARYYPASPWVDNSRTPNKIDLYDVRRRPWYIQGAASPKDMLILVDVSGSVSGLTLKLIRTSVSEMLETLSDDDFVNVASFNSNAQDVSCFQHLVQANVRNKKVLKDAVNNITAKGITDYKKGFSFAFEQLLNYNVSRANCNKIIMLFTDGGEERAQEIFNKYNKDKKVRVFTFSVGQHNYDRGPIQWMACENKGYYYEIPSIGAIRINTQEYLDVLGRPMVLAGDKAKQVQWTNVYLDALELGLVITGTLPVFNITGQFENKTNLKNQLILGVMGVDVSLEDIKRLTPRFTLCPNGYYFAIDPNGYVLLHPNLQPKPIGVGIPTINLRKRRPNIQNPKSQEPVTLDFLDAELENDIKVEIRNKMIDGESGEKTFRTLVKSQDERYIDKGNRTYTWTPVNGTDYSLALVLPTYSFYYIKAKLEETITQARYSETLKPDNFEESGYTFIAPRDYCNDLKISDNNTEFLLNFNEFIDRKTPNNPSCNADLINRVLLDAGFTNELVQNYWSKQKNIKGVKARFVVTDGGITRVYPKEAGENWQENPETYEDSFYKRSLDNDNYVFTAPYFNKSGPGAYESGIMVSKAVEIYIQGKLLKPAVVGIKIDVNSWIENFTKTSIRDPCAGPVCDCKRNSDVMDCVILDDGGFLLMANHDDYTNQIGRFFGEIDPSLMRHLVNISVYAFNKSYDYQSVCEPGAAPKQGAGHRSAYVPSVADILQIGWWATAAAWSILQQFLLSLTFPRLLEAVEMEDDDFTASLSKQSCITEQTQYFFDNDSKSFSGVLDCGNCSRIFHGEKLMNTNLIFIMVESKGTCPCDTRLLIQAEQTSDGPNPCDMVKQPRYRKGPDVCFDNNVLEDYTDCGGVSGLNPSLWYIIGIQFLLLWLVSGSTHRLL
Sequence (O00555 whole entry): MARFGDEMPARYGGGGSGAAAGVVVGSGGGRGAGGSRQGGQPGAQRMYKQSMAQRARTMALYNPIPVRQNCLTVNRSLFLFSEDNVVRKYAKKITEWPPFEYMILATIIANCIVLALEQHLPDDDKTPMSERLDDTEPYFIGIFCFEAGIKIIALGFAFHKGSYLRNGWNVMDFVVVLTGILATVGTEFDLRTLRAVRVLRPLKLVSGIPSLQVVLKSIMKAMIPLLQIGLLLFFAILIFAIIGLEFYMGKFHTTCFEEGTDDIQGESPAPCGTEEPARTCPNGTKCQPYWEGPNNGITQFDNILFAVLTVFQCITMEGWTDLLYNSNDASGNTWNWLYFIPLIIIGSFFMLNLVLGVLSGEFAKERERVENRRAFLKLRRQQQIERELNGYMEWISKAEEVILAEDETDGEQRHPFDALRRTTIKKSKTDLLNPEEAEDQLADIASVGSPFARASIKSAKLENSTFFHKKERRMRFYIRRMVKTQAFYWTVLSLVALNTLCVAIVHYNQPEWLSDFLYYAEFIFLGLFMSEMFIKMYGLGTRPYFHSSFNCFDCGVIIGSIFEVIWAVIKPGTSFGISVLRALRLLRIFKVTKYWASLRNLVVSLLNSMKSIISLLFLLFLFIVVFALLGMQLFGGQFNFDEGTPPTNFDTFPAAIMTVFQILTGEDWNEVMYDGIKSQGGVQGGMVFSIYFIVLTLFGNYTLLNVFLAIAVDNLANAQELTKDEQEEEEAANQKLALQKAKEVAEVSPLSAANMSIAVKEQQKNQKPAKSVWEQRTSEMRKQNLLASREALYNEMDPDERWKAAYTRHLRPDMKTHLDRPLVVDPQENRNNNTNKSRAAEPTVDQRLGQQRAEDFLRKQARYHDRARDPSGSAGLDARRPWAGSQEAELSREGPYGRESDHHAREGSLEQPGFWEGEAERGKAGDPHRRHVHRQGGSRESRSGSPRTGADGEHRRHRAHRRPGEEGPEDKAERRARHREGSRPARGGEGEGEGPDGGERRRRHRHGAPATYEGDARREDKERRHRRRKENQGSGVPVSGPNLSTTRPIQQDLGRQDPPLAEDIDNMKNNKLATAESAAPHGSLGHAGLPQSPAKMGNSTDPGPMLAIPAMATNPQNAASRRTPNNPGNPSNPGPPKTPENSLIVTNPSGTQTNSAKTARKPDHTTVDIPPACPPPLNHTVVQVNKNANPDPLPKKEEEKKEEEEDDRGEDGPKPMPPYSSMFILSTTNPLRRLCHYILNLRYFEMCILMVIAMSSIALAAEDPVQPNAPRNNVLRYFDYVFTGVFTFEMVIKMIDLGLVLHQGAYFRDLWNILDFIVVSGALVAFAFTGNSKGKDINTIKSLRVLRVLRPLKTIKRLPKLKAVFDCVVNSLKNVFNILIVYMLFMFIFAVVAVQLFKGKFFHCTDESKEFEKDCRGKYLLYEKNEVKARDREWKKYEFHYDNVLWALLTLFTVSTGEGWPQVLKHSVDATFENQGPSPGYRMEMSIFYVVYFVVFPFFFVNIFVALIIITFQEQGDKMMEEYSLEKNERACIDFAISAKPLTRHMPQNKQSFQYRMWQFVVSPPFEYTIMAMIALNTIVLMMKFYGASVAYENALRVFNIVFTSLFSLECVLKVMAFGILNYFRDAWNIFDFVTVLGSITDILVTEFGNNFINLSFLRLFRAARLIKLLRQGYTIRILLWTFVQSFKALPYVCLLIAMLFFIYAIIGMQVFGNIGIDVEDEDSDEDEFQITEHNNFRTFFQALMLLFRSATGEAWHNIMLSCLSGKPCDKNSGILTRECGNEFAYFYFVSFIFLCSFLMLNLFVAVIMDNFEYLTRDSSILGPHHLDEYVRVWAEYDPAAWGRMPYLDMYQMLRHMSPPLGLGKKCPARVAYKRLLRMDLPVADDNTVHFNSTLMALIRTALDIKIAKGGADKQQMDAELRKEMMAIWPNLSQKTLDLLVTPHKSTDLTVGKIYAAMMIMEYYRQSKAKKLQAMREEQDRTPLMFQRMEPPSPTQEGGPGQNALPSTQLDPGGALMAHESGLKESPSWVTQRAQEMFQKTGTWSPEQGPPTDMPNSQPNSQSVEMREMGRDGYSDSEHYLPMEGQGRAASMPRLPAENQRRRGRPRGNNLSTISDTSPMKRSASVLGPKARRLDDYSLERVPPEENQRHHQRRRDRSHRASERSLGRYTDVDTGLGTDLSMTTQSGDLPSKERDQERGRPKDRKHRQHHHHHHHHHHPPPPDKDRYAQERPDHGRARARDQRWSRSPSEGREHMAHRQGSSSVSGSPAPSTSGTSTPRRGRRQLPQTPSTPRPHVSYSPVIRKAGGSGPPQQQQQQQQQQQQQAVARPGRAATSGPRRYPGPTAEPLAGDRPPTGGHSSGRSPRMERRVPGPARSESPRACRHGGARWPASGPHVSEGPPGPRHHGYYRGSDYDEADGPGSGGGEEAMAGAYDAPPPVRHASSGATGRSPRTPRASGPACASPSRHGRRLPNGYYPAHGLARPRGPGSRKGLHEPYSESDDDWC
Assay: cell-based
Details: peptide at 20 μM; 100% = no change, <100% = inhibition
value.kind: Activity of Cav2.1 with peptide (percentage of the reference compound) (%)

| substance | result |
| --- | --- |
| 20 (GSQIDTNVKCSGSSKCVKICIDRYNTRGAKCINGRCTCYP) [compound 20] | 116 |
| 26 (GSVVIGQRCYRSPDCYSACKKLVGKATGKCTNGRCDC) [compound 26] | 85 |
| 36 (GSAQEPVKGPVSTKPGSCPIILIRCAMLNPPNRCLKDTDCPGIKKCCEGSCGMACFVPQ) [compound 36] | 102 |
| 11 (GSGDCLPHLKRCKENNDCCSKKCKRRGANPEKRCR) [compound 11] | 110 |
| 39 (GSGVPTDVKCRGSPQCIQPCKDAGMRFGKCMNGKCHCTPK) [compound 39] | 96 |
| 25 (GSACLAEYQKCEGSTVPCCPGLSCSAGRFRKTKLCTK) [compound 25] | 109 |
| 32 (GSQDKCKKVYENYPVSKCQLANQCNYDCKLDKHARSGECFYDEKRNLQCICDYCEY) [compound 32] | 92 |
| 29 (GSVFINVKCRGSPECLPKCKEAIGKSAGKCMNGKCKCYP) [compound 29] | 111 |
| 15 (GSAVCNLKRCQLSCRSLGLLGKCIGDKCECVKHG) [compound 15] | 86 |
| 16 (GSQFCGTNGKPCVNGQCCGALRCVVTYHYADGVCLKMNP) [compound 16] | 92 |
| 18 (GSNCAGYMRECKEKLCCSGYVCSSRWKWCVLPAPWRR) [compound 18] | 98 |
| 34 (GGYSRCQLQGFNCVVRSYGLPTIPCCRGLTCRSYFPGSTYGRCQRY) [compound 34] | 111 |

====

Target: 5HT3a (Homo sapiens, UniProt P46098)
Construct: host or cells: HEK293 or CHO
Sequence (P46098 whole entry, looked up): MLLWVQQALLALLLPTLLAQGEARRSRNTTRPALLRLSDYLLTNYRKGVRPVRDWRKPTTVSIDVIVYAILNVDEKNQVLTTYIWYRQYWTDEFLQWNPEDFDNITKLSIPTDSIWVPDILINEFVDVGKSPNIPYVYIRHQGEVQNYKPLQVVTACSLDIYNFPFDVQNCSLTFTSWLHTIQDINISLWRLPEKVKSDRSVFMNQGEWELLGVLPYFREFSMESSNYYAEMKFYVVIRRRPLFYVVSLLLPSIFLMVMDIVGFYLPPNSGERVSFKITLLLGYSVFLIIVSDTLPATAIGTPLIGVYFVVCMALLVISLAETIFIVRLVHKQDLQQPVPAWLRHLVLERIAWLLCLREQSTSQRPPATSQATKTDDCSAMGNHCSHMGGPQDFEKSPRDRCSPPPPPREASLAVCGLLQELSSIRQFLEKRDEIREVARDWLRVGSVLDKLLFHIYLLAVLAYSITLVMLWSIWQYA
Experiment: Ion channel panel (IonWorks Barracuda): 5HT3a
Format: cell-based
value.kind: Activity of 5HT3a with peptide, expressed as a percentage of the reference compound (%)

| substance | result |
| --- | --- |
| 39 (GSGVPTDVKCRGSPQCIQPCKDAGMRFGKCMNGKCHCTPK) [compound 39] | 67 |
| 20 (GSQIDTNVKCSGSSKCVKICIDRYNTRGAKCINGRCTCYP) [compound 20] | 96 |
| 12 (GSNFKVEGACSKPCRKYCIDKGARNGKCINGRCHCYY) [compound 12] | 96 |
| 11 (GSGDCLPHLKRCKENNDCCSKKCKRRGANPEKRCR) [compound 11] | 73 |
| 24 (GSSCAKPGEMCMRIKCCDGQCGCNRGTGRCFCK) [compound 24] | 85 |
| 22 (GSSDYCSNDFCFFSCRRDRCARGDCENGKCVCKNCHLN) [compound 22] | 77 |
| 9 (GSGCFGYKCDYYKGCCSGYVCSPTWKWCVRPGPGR) [compound 9] | 107 |
| 29 (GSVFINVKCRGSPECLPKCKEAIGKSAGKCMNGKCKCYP) [compound 29] | 122 |

====

Target: Cav2.2 (Homo sapiens, UniProt Q00975)
Construct: host or cells: HEK293 or CHO
Test: cell-based
Conditions: peptide at 20 μM; 100% = no change, <100% = inhibition
value.kind: Activity of Cav2.2 with peptide (percentage of the reference compound) (%)

| substance | unit.of.measurement | result |
| --- | --- | --- |
| 30 (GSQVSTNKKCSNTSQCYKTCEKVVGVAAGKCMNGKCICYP) [compound 30] | % | 101 |
| 18 (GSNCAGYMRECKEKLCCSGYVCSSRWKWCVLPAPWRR) [compound 18] | % | 124 |
| 24 (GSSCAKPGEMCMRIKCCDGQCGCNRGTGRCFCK) [compound 24] | % | 102 |
| 2 (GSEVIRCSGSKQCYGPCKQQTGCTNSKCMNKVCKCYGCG) [compound 2] | % | 104 |
| 23 (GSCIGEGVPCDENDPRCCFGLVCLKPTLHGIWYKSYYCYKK) [compound 23] | % | 95 |
| 6 (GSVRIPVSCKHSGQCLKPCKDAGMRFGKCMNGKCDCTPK) [compound 6] | % | 107 |
| 5 (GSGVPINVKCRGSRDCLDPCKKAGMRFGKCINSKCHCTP) [compound 5] | % | 117 |
| 4 (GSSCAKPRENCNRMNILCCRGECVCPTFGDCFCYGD) [compound 4] | % | 101 |
| 39 (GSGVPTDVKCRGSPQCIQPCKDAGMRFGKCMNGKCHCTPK) [compound 39] | % | 98 |
